Each recorded value in this set is attributed to patent US20180208678A1.

Biological target: BgaD-D active site mutant E447K (Bacillus circulans ATCC 31382)
Assay: bead assay, purified proteins, target given as BgaD-D/EK, titrated 0-1000 nM shown, 1:1 fit [panel a]
Exercise: state measured log10 Kd for each of the binders provided.
Log10 applied to Kd; unit prior to transform: nM.

Reference set (4 entries):
>  <binder>
Mb(BgaD_S09) (designed binder) VSSVPTKLEVVAATPTSLLISWDAPAVTVVYYVITYGETGGNSPVQEFTVPGSKSTATISGLKPGVDYTITVYAYSDQVEYYEYFYGSPISINYRT

>  <experimental value>
2.25

$$$$
>  <binder>
Mb(BgaD_L23) (designed binder) VSSVPTKLEVVAATPTSLLISWDAFDGYWYDYVSFYRITYGESGGNSPVQEFTVPSSSSTATISGLKPGVDYTITVYAYSHSQQQYLSPNSINYRT

>  <experimental value>
2.19

$$$$
>  <binder>
Mb(BgaD_L19) (designed binder) VSSVPTKLEVVAATPTSLLISWDAFDGYWYDYVSYYRITYGETGGNSPVQEFTVPSSSSTATISGLKPGVDYTITVYAYSHSQQQYLSPISINYRT

>  <experimental value>
2.24

$$$$
>  <binder>
Mb(BgaD_S10) (designed binder) VSSVPTKLEVVAATPTSLLISWDAPAVTVVFYLITYGETGASSWPGYQEFTVPGSKSTATISGLKPGVDYTITVYAQYPWDTGSPISINYRT

>  <experimental value>
1.08

$$$$

Let us examine a further case.
Data point: Mb(BgaD_L02) (designed binder) VSSVPTKLEVVAATPTSLLISWDANGWNYVKYYRITYGETGGNSPVQEFTVPGSSSTATISGLKPGVDYTITVYAYEYYSESSSSPISINYRT ; log10 Kd = 1.04
